# Test system: breast cancer cell line MX-1
# test-summary: MX-1 cell line proliferation assay
# Format: cell-based
# study-conditions: Homo sapiens, MX1, 72 h, MX-1 cells, 3-day proliferation assay, Cell Titer Glo; read-out: Cellular proliferation EC50
Measured pEC50 values are reported for all entries that follow.
Give only the number. pEC50 is defined as minus log10 of concentration in molar units.

query-smiles | numeric-value
CCS(=O)(=O)Nc1ccc(Oc2ccc(F)cc2F)c(-c2cn(C)c3c(=O)[nH]c(C(=O)NC)cc23)c1 | 7.36

In the following, a different compound is considered.
Data request, read-out pEC50, for Cn1cc(-c2cc(CS(C)(=O)=O)ccc2NCC2CC2)c2cc[nH]c(=O)c21
6.87

----------
# assayed-target: BRD4 (BDI_K57-E168) (Homo sapiens)
# Construct: BD1: amino acids K57-E168
# test-summary: TR-FRET bromodomain binding assay, first bromodomain of BRD4
# study-conditions: His-tagged BD1, 100 nM Alexa647 probe; TR-FRET protocol A-E given per row
Some compounds, each annotated with its measured log10(Ki).
For clarity, the numbers are log10 values of Ki expressed in nM.

These solved cases illustrate the format of a correct answer.
compound | readout-label | numeric-value
Cn1cc(-c2cc(CNS(=O)(=O)c3ccccc3)ccc2Oc2ccc(F)cc2F)c2cc[nH]c(=O)c21 | log10(Ki) | 1.81
COC1CCN(Cc2ccc(Oc3ccc(F)cc3F)c(-c3cn(C)c4c(=O)[nH]ccc34)c2)CC1 | log10(Ki) | 3.13
Cn1cc(-c2cc(S(=O)(=O)N3CCc4ccccc43)ccc2OCC2CC2)c2cc[nH]c(=O)c21 | log10(Ki) | 2.20

What does the data say about its log10(Ki)? Entry: Cn1cc(-c2cc(NC(=O)C3CCN(c4ccccc4)C3=O)ccc2Oc2ccc(F)cc2F)c2cc[nH]c(=O)c21 (stereo not drawn)
2.07

Consider the compound Cn1cc(-c2cc(S(C)(=O)=O)ccc2Oc2ccccc2)c2cc[nH]c(=O)c21 and give its measured log10(Ki).
1.08

----------
Consider the following molecules and their measured EC50 readings.
# Test system: breast cancer cell line MX-1
# test-summary: MX-1 cell line proliferation assay
# Format: cell-based
# study-conditions: Homo sapiens, MX1, 72 h, MX-1 cells, 3-day proliferation assay, Cell Titer Glo; read-out: Cellular proliferation EC50

query-smiles | EC50
Cn1cc(-c2cc(NS(=O)(=O)Cc3ccccc3)ccc2Oc2ccc(F)cc2F)c2cc[nH]c(=O)c21 | > 1000 nM
Cc1oncc1S(=O)(=O)NCc1ccc(Oc2ccc(F)cc2F)c(-c2cn(C)c3c(=O)[nH]ccc23)c1 | > 3000 nM
Cn1cc(-c2cc(CNS(=O)(=O)C3CCCC3)ccc2Oc2ccc(F)cc2F)c2cc[nH]c(=O)c21 | 872 nM

Consider the molecule shown here: Cn1cc(-c2cc(NS(=O)(=O)Cc3cc(F)ccc3Cl)ccc2Oc2ccc(F)cc2F)c2cc[nH]c(=O)c21 What is its recorded EC50?
> 1000 nM

----------
# assayed-target: BRD4 (BDI_K57-E168) (Homo sapiens, UniProt O60885)
# Construct: BD1: amino acids K57-E168
# test-summary: TR-FRET bromodomain binding assay, first bromodomain of BRD4
# study-conditions: His-tagged BD1, 100 nM Alexa647 probe; TR-FRET protocol A-E given per row
Field 'label' (enum: yes (1) / no (0)). Set to yes (1) when Ki is strictly under 10 nM; else no (0).

Examples from the recorded data:
molecule | assigned-category
CN(CC1CC1)c1ccc(S(C)(=O)=O)cc1-c1cn(C)c2c(=O)[nH]ccc12 [Example 45] | no (0)
CCS(=O)(=O)Nc1ccc(Oc2ccc(F)cc2F)c(-c2cn(C)c3c(=O)[nH]c(C(=O)NCc4ccoc4)cc23)c1 [Example 201] | yes (1)
Cn1cc(-c2cc(S(C)(=O)=O)ccc2OCCC(C)(C)C)c2cc[nH]c(=O)c21 [Example 40] | no (0)
CCS(=O)(=O)c1ccc(Oc2ccc(Cl)cc2)c(-c2cn(C)c3c(=O)[nH]ccc23)c1 [Example 48] | no (0)
Cc1noc(C)c1S(=O)(=O)NCc1ccc(Oc2ccc(F)cc2F)c(-c2cn(C)c3c(=O)[nH]ccc23)c1 [Example 140] | no (0)

Quick check: does Cn1cc(-c2c(OCC3CC3)ccc3cc[nH]c23)c2cc[nH]c(=O)c21 [Example 98] have Ki under 10 nM?
no (0)

State whether 10 nM exceeds Ki recorded for CCS(=O)(=O)Nc1ccc(O[C@H]2CC[C@H](OC)CC2)c(-c2cn(C)c3c(=O)[nH]ccc23)c1 [Example 6] .
yes (1)

Please state whether Ki is below 10 nM for CCS(=O)(=O)Nc1ccc(Oc2ccc(F)cc2F)c(-c2cn(C)c3c(=O)[nH]c(CN4CCOCC4)cc23)c1 [Example 182]
no (0)

Determine whether this molecule shows Ki lower than 10 nM (ties excluded): Cn1cc(-c2cc(F)cnc2Nc2ccc(F)cc2)c2cc[nH]c(=O)c21 [Example 145]
no (0)

Hi there! Is Ki for CCS(=O)(=O)Nc1ccc(Oc2ccc(F)cc2F)c(-c2cn(C)c3c(=O)[nH]c(C(=O)NCCCn4ccnc4)cc23)c1 [Example 187] below 10 nM, do you know?
yes (1)

Consider Cn1cc(-c2cc(S(C)(=O)=O)ccc2OCC2CC2(F)F)c2cc[nH]c(=O)c21 (centres unmarked) [Example 42] . Does its Ki lie strictly below 10 nM?
no (0)

----------
# System: breast cancer cell line MX-1
# test-summary: MX-1 cell line proliferation assay
# Type: cell-based
# study-conditions: Homo sapiens, MX1, 72 h, MX-1 cells, 3-day proliferation assay, Cell Titer Glo; read-out: Cellular proliferation EC50
pEC50: −log10 of the molar value.
Note to self: values exactly at 7 are true. So pEC50 at or above 7 is true, below is false.

Hello, I need to know if Cn1cc(-c2cc(CS(=O)(=O)Nc3nccs3)ccc2Oc2ccc(F)cc2F)c2cc[nH]c(=O)c21 has measured pEC50 not below 7. Thanks!
false

Answer whether pEC50 of Cn1cc(-c2cc(CNS(=O)(=O)CC(F)(F)F)ccc2Oc2ccc(F)cc2F)c2cc[nH]c(=O)c21 is greater than or equal to 7.
false

Entry CCS(=O)(=O)C(C)(C)c1ccc(Oc2ccc(F)cc2F)c(-c2cn(C)c3c(=O)[nH]ccc23)c1 : is its pEC50 no less than 7?
true

pEC50 >= 7 for Cn1cc(-c2cc(NS(C)(=O)=O)ccc2Oc2ccc(C#N)cc2)c2cc[nH]c(=O)c21 ?
true

I'd appreciate it if you could say whether Cn1cc(-c2cc(NCc3ccc(C#N)cc3)ccc2Oc2ccc(F)cc2F)c2cc[nH]c(=O)c21 has pEC50 at least equal to 7.
false

Kindly determine if pEC50 recorded for COc1ccccc1S(=O)(=O)NCc1ccc(Oc2ccc(F)cc2F)c(-c2cn(C)c3c(=O)[nH]ccc23)c1 is above or exactly 7.
false

Please indicate if the recorded pEC50 for Cn1cc(-c2cc(CCl)ccc2Oc2ccc(F)cc2F)c2cc[nH]c(=O)c21 meets or exceeds 7.
false

----------
# assayed-target: BRD4 (BDI_K57-E168) (Homo sapiens, UniProt O60885)
# Construct: BD1: amino acids K57-E168
# test-summary: TR-FRET bromodomain binding assay, first bromodomain of BRD4
# study-conditions: His-tagged BD1, 100 nM Alexa647 probe; TR-FRET protocol A-E given per row
pKi: −log10 of the molar value.
Label YES for high-side pKi (at or above 7) and NO for low-side pKi (below it).

Check out these entries, answers already filled in.
compound | assayed-target | assigned-category
CCc1cc2c(-c3cc(CS(C)(=O)=O)ccc3Oc3ccc(F)cc3F)cn(C)c2c(=O)[nH]1 | BRD4 (BDI_K57-E168) (Homo sapiens, UniProt O60885) | YES
Cn1cc(-c2cc(CNCc3ccoc3)ccc2Oc2ccc(F)cc2F)c2cc[nH]c(=O)c21 | BRD4 (BDI_K57-E168) (Homo sapiens, UniProt O60885) | NO
CCS(=O)(=O)c1cnc(Oc2ccc(F)cc2F)c(-c2cn(C)c3c(=O)[nH]ccc23)c1 | BRD4 (BDI_K57-E168) (Homo sapiens, UniProt O60885) | NO
CCS(=O)(=O)C(C)c1ccc(Oc2ccc(F)cc2F)c(-c2cn(C)c3c(=O)[nH]ccc23)c1 (single isomer, unassigned) [Example 56] | BRD4 (BDI_K57-E168) (Homo sapiens, UniProt O60885) | YES
Cn1cc(-c2cc(CNS(=O)(=O)Cc3ccc(Cl)cc3)ccc2Oc2ccc(F)cc2F)c2cc[nH]c(=O)c21 | BRD4 (BDI_K57-E168) (Homo sapiens, UniProt O60885) | NO
Cn1cc(-c2cc(CNCCC3CCCC3)ccc2Oc2ccc(F)cc2F)c2cc[nH]c(=O)c21 | BRD4 (BDI_K57-E168) (Homo sapiens, UniProt O60885) | NO
Cn1cc(-c2cc(CS(C)(=O)=O)cnc2Oc2ccc(F)cc2F)c2cc[nH]c(=O)c21 | BRD4 (BDI_K57-E168) (Homo sapiens, UniProt O60885) | YES
Cn1cc(-c2cc(S(C)(=O)=O)ccc2O[C@H]2CC[C@H](O)CC2)c2cc[nH]c(=O)c21 | BRD4 (BDI_K57-E168) (Homo sapiens, UniProt O60885) | YES
Cn1cc(-c2cc(CS(C)(=O)=O)ccc2Oc2ccc(F)cc2F)c2cc(-c3cc(CS(C)(=O)=O)ccc3Oc3ccc(F)cc3F)[nH]c(=O)c21 | BRD4 (BDI_K57-E168) (Homo sapiens, UniProt O60885) | NO
Cn1cc(-c2cc(CN3CCC(C(F)(F)F)CC3)ccc2Oc2ccc(F)cc2F)c2cc[nH]c(=O)c21 | BRD4 (BDI_K57-E168) (Homo sapiens, UniProt O60885) | NO

Textbook exercise: given the entry CCS(=O)(=O)c1ccc(Oc2ccc(C#N)cc2)c(-c2cn(C)c3c(=O)[nH]ccc23)c1 , state whether its pKi is greater than or equal to 7.
YES

Check the entry Cn1cc(-c2cc(S(C)(=O)=O)ccc2OC2CCCOC2)c2cc[nH]c(=O)c21 (stereo not drawn) : does pKi equal or exceed 7?
YES

Hi, just wondering whether Cn1cc(-c2cc(S(C)(=O)=O)ccc2OCCC2CCCC2)c2cc[nH]c(=O)c21 shows pKi of 7 or higher.
YES
